# Target desc: human 5-HT2B receptor (Homo sapiens, UniProt P41595)
# Sequence (P41595 whole entry): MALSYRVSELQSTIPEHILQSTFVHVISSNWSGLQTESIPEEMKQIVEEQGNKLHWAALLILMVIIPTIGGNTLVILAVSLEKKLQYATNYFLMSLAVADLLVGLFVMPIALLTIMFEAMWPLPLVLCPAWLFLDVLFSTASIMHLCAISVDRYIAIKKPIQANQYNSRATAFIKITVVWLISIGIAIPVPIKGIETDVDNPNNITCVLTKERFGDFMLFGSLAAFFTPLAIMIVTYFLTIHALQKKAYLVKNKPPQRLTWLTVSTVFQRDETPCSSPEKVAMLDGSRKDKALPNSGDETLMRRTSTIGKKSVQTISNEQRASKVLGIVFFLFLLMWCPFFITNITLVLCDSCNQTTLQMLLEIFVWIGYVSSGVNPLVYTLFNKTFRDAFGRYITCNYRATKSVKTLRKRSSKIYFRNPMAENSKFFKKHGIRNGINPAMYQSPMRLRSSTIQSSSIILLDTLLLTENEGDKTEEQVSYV
# Assay explanation: 5-HT2B receptor binding assay
# Condition notes: 100 nM compound; 1.2 nM [3H]-LSD, 60 minutes at 22° C., CHO cells; read-out: % inhibition of control specific at 100 nM conc.
Measure name: inhibition at 0.1 µM (%)

> print(dat)
                           molecule  observed
1   Cc1cccc(O[C@@H]2CCNC[C@H]2O)c1C         6
2    Cc1cccc(O[C@H]2CCNC[C@H]2O)c1C        48
3   Cc1cccc(O[C@H]2CCNC[C@@H]2O)c1C         6
4  Cc1cccc(O[C@@H]2CCNC[C@@H]2O)c1C         6
